Source: the supplement of paper PMC4166925

As shown below, each of these sequences has a reported PBM E-score of 8-mer value.
- Test system: SpTbr T-box DNA-binding domain (GST fusion);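 further: protein at 200 nM in PBS on universal double-stranded arrays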
- Sequence: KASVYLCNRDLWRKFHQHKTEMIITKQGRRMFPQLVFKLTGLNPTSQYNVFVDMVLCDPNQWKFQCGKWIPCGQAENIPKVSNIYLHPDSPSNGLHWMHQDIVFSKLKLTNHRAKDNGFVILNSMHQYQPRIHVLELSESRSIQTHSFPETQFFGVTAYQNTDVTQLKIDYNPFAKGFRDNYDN
- ASSAY COMMENT: PBM E-score of 8-mer (E-score (dimensionless, -0.5 to 0.5)); Tbr is Tbrain of the sea star Patiria miniata (Pm) or the sea urchin Strongylocentrotus purpuratus (Sp); higher = stronger binding preference
- REPORTED CONDITIONS: the construct has about 5 more residues each side
Over roughly 33,000 sequences, “E-score (dimensionless, -0.5 to 0.5)” has its median near -0.046; the highest 2% begin near 0.36. For the sample, the highest values were picked, then their nearest neighbours and some sequences at random.
Lab note: record the figure alone, no unit after it.

Record excerpt, results attached:
CACAACAA 0.285
ATAACACC 0.457
AAGGTGCG 0.452
CACAACAG 0.198
CACGCCTC 0.395

Fill in the blank: the reported PBM E-score of 8-mer of CCGATAGG is ____.
0.00486

Fill in the blank: the reported PBM E-score of 8-mer of AACGCCAT is ____.
0.199

Fill in the blank: the reported PBM E-score of 8-mer of GAGCTTCC is ____.
-0.129

Fill in the blank: the reported PBM E-score of 8-mer of AAATTCTG is ____.
-0.136

Fill in the blank: the reported PBM E-score of 8-mer of AGTTGCGG is ____.
0.126

Fill in the blank: the reported PBM E-score of 8-mer of AGCTACAA is ____.
-0.161

Fill in the blank: the reported PBM E-score of 8-mer of CGCGCCTC is ____.
0.365

Fill in the blank: the reported PBM E-score of 8-mer of GACAACAA is ____.
0.215
